Let's look at some compounds and their measured Kd.
measured on: BRD4-BD1 (BRD4-1) (Homo sapiens, UniProt O60885)
Construct: BRD4-BD1 (residues 44-168); 6xHis (cleaved yes); host or cells: E. coli BL21 (DE3) RIL
assay comment: Isothermal titration calorimetry (ITC)
Format: binding
condition set: single ITC experiment, data fit ± SEM

{"columns": ["compound", "Kd"],
 "data": [
  ["Cc1noc(C)c1-c1ccc2c(c1)nc(C1CCCC(=O)N1)n2C1CCC(NC(=O)OC(C)(C)C)CC1 (centres unmarked) [Compound 1]", "4210 nM"],
  ["CO[C@H]1CC[C@H](n2c([C@@H]3CCCC(=O)N3c3ccc(F)c(F)c3)nc3cc(-c4c(C)noc4C)ccc32)CC1 [CCS1477]", "403 nM"]
]}

---

measured on: CBP bromodomain (Homo sapiens, UniProt Q92793)
Construct: CBP (residues 1081-1197); 6xHis (cleaved yes); host or cells: E. coli BL21 (DE3) RIL
Sequence (Q92793 1081-1197): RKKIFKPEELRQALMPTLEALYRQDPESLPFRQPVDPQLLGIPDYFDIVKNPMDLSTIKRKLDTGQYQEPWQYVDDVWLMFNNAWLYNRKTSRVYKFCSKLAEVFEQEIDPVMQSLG
assay comment: Differential scanning fluorimetry (DSF) thermal shift
Format: binding
condition set: Figure 3B, DSF, CBP
Experimental: After 18 h growth, the culture was harvested by centrifugation at 6000 × g for 25 min and stored at -80 °C. Harvested cell pellets were re-suspended in 50 mM Na/K phosphate buffer (pH 7.4) containing 100 mM NaCl, 40 mM imidazole, 0.01% w/v lysozyme and 0.01% v/v Triton X-100 at 4 °C for 1 h, subjected to sonication and the lysate was clarified by centrifugation (30,000 × g for 45 min at 4 °C). Proteins were purified by FPLC at 4 °C using columns and chromatography materials from GE Healthcare. […]
Reported values of ΔTm (°C) CBP for individual entries
recorded endpoint: ΔTm (°C) CBP

{"columns": ["compound", "recorded endpoint", "recorded value"],
 "data": [
  ["COC1CCC(n2c(C3CCCC(=O)N3)nc3cc(-c4c(C)noc4C)ccc32)CC1 (stereo not drawn) [Compound 2]", "ΔTm (°C) CBP", "5.6 °C"],
  ["COC1CCC(n2c(C3CCCC(=O)N3c3ccccc3)nc3cc(-c4c(C)noc4C)ccc32)CC1 (stereo not drawn) [Compound 5]", "ΔTm (°C) CBP", "14.6 °C"],
  ["COC1CCC(n2c(C3CCCC(=O)N3c3cc(C(F)(F)F)cc(C(F)(F)F)c3)nc3cc(-c4c(C)noc4C)ccc32)CC1 (stereo not drawn) [Compound 4]", "ΔTm (°C) CBP", "9.9 °C"],
  ["COC1CCC(n2c(C3CCCC(=O)N3c3cccc(C(F)F)c3)nc3cc(-c4c(C)noc4C)ccc32)CC1 (stereo not drawn) [Compound 3]", "ΔTm (°C) CBP", "15.7 °C"],
  ["COC1CCC(n2c(C3CCCC(=O)N3c3cccc(C(C)(C)C)c3)nc3cc(-c4c(C)noc4C)ccc32)CC1 (stereo not drawn) [iCBP-6]", "ΔTm (°C) CBP", "15.3 °C"],
  ["COC1CCC(n2c(C3CCCC(=O)N3c3ccc4c(c3)OCCO4)nc3cc(-c4c(C)noc4C)ccc32)CC1 (stereo not drawn) [Compound 7]", "ΔTm (°C) CBP", "15.5 °C"]
]}

---

Measured Ratio CBP/BRD4 of ∆Tm, listed per entry for reference.
Test system: CBP bromodomain
assay comment: Differential scanning fluorimetry (DSF) thermal shift
Assay type: binding
condition set: ΔTm (CBP)/ΔTm(BRD4)
recorded endpoint: Ratio CBP/BRD4 of ∆Tm

{"columns": ["compound", "recorded value"],
 "data": [
  ["COC1CCC(n2c(C3CCCC(=O)N3c3ccccc3)nc3cc(-c4c(C)noc4C)ccc32)CC1 (stereo not shown)", 2.7],
  ["COC1CCC(n2c(C3CCCC(=O)N3c3ccc4c(c3)OCCO4)nc3cc(-c4c(C)noc4C)ccc32)CC1 (stereo not shown)", 2.2],
  ["COC1CCC(n2c(C3CCCC(=O)N3c3cccc(C(F)F)c3)nc3cc(-c4c(C)noc4C)ccc32)CC1 (stereo not shown)", 2.8],
  ["Cc1noc(C)c1-c1ccc2c(c1)nc(C1CCCC(=O)N1)n2C1CCC(NC(=O)OC(C)(C)C)CC1 (stereo not shown)", 3.7],
  ["COC1CCC(n2c(C3CCCC(=O)N3c3cccc(C(C)(C)C)c3)nc3cc(-c4c(C)noc4C)ccc32)CC1 (stereo not shown)", 4.8],
  ["COC1CCC(n2c(C3CCCC(=O)N3c3cc(C(F)(F)F)cc(C(F)(F)F)c3)nc3cc(-c4c(C)noc4C)ccc32)CC1 (stereo not shown)", 4.7],
  ["COC1CCC(n2c(C3CCCC(=O)N3)nc3cc(-c4c(C)noc4C)ccc32)CC1 (stereo not shown)", 1.9]
]}

---

measured on: BRD4-BD1 (BRD4-1) (Homo sapiens, UniProt O60885)
Construct: BRD4-BD1 (residues 44-168); 6xHis (cleaved yes); host or cells: E. coli BL21 (DE3) RIL
assay comment: Differential scanning fluorimetry (DSF) thermal shift
Assay type: binding
condition set: Figure 3A, DSF, BRD4-BD1
Think of 3 °C as a floor: if ΔTm (°C) BRD4-BD1 stands on it or above, it is Fulfilled; beneath it, Not fulfilled.

{"columns": ["molecule", "discrete label"],
 "data": [
  ["COC1CCC(n2c(C3CCCC(=O)N3)nc3cc(-c4c(C)noc4C)ccc32)CC1 (stereo not drawn)", "Not fulfilled"],
  ["COC1CCC(n2c(C3CCCC(=O)N3c3ccc4c(c3)OCCO4)nc3cc(-c4c(C)noc4C)ccc32)CC1 (stereo not drawn)", "Fulfilled"],
  ["COC1CCC(n2c(C3CCCC(=O)N3c3cccc(C(F)F)c3)nc3cc(-c4c(C)noc4C)ccc32)CC1 (stereo not drawn)", "Fulfilled"],
  ["COC1CCC(n2c(C3CCCC(=O)N3c3cc(C(F)(F)F)cc(C(F)(F)F)c3)nc3cc(-c4c(C)noc4C)ccc32)CC1 (stereo not drawn)", "Not fulfilled"],
  ["COC1CCC(n2c(C3CCCC(=O)N3c3cccc(C(C)(C)C)c3)nc3cc(-c4c(C)noc4C)ccc32)CC1 (stereo not drawn)", "Fulfilled"],
  ["COC1CCC(n2c(C3CCCC(=O)N3c3ccccc3)nc3cc(-c4c(C)noc4C)ccc32)CC1 (stereo not drawn)", "Fulfilled"]
]}

---

Entries and their ΔTm (°C) CBP values follow.
measured on: CBP bromodomain (Homo sapiens, UniProt Q92793)
Construct: CBP (residues 1081-1197); 6xHis (cleaved yes); host or cells: E. coli BL21 (DE3) RIL
assay comment: Differential scanning fluorimetry (DSF) thermal shift
Format: binding
condition set: Figure 3A, DSF, CBP bromodomain

{"columns": ["molecule", "ΔTm (°C) CBP"],
 "data": [
  ["COC1CCC(n2c(C3CCCC(=O)N3c3cccc(C(F)F)c3)nc3cc(-c4c(C)noc4C)ccc32)CC1 (stereo not drawn)", 15.7],
  ["COC1CCC(n2c(C3CCCC(=O)N3c3ccccc3)nc3cc(-c4c(C)noc4C)ccc32)CC1 (stereo not drawn)", 14.6],
  ["COC1CCC(n2c(C3CCCC(=O)N3c3ccc4c(c3)OCCO4)nc3cc(-c4c(C)noc4C)ccc32)CC1 (stereo not drawn)", 15.5],
  ["COC1CCC(n2c(C3CCCC(=O)N3)nc3cc(-c4c(C)noc4C)ccc32)CC1 (stereo not drawn)", 5.6],
  ["COC1CCC(n2c(C3CCCC(=O)N3c3cccc(C(C)(C)C)c3)nc3cc(-c4c(C)noc4C)ccc32)CC1 (stereo not drawn)", 15.3],
  ["COC1CCC(n2c(C3CCCC(=O)N3c3cc(C(F)(F)F)cc(C(F)(F)F)c3)nc3cc(-c4c(C)noc4C)ccc32)CC1 (stereo not drawn)", 9.9]
]}

---

Reported ∆Tm (°C) BRD4-1 values for a set of compounds
measured on: BRD4-BD1 (BRD4-1) (Homo sapiens, UniProt O60885)
Construct: BRD4-BD1 (residues 44-168); 6xHis (cleaved yes); host or cells: E. coli BL21 (DE3) RIL
assay comment: Differential scanning fluorimetry (DSF) thermal shift
Format: binding
condition set: DSF; 5 μM protein, 100 μM compound; three independent experiments, average ± SD
recorded endpoint: ∆Tm (°C) BRD4-1

{"columns": ["compound", "measured on", "recorded endpoint", "recorded value"],
 "data": [
  ["COC1CCC(n2c(C3CCCC(=O)N3c3cccc(C(F)F)c3)nc3cc(-c4c(C)noc4C)ccc32)CC1 (stereo not shown) [Compound 3]", "BRD4-BD1 (BRD4-1) (Homo sapiens, UniProt O60885)", "∆Tm (°C) BRD4-1", 5.6],
  ["COC1CCC(n2c(C3CCCC(=O)N3)nc3cc(-c4c(C)noc4C)ccc32)CC1 (stereo not shown) [Compound 2]", "BRD4-BD1 (BRD4-1) (Homo sapiens, UniProt O60885)", "∆Tm (°C) BRD4-1", 2.9],
  ["COC1CCC(n2c(C3CCCC(=O)N3c3ccccc3)nc3cc(-c4c(C)noc4C)ccc32)CC1 (stereo not shown) [Compound 5]", "BRD4-BD1 (BRD4-1) (Homo sapiens, UniProt O60885)", "∆Tm (°C) BRD4-1", 5.5],
  ["Cc1noc(C)c1-c1ccc2c(c1)nc(C1CCCC(=O)N1)n2C1CCC(NC(=O)OC(C)(C)C)CC1 (stereo not shown) [Compound 1]", "BRD4-BD1 (BRD4-1) (Homo sapiens, UniProt O60885)", "∆Tm (°C) BRD4-1", 2.1]
]}
